// provenance: PubChem BioAssay (NCI)

# Test system: SK-OV-3 ovarian
# Assay summary: NCI-60 one-dose screen, 48 h
# Measurement setup: 10 µM unless noted
The panel holds about 83,000 compounds, 20% with a hit somewhere; the sample as a whole holds those more often. The source made the active and inactive calls. How the source made its calls: active means growth percent below 10; inactive means the rest.
Select the correct class. Options are 1.0 (active), 0.0 (inactive) and nothing else.

Please review the following examples before continuing.
CN1CCN(c2ccc3c(c2)nc(NNC(=O)c2cnccn2)c2cccn23)CC1 = 1.0
Cn1cc(-c2cc3nc(-c4cn(C)c5ncc(Br)cc45)cc(N)n3n2)c2cc(Cl)ccc21 = 1.0
O=C(/C=C/c1ccc(-c2ccccc2)cc1)c1nc2ccccc2n1Cc1ccc(F)cc1 = 0.0
CC12CC[C@@H]3[C@]4(C)COC(c5cn[nH]c5-c5cccc(Br)c5)O[C@@H]4CC[C@@]3(C)[C@@H]1CC(C1=CCOC1=O)O2 (some centres undefined) = 0.0
Cn1cc(-c2cc(N)n3nc(-c4cn(C)c5ccccc45)cc3n2)c2cc(Cl)ccc21 = 0.0

INPUT: Tell me the recorded outcome of this test for COc1ccccc1/C=C/C(=O)c1ccc(OC)c(S(N)(=O)=O)c1 .
OUTPUT: 0.0

INPUT: Could you check what this test reported for Clc1ccc(-c2ccc(OCCCN3CCN(c4ccncc4)CC3)cc2)cc1 ?
OUTPUT: 0.0

INPUT: Hey, what did the test say about COc1cccc(-c2nc(Nc3ccc(S(N)(=O)=O)cc3)c3ccccc3n2)c1 ?
OUTPUT: 0.0

INPUT: // return assay outcome for CC(=O)Nc1cccc(Nc2nc(NCc3ccccc3)c3ccccc3n2)c1
OUTPUT: 1.0

---

# System: SF-539 CNS
# Assay summary: NCI-60 one-dose screen, 48 h
# Measurement setup: 10 µM unless noted
This is part of a sample that, as a whole, favours compounds with a hit. Of some 83,000 tested, about 20% had one in any assay. The source made the active and inactive calls. How the source made its calls: active means growth percent below 10; inactive means the rest.
Give your call using only these classes: active, inactive

C#CCOc1ccc(/C=N/Nc2nc(-c3ccc(Cl)cc3)cs2)cc1OC = inactive
COc1ccc(-c2nc(SC(C)C)nc(NCCc3c[nH]c4ccccc34)c2C#N)cc1 = inactive
O=C(O)c1cccc(-c2ccc(/C=N/NC(=O)c3[nH]c4ccc(Br)cc4c3-c3ccccc3)o2)c1 = inactive

Consider the record given below.
INPUT: Could you please tell me the result logged for COc1ccc2[nH]c(O)c(N=NC(=O)Cn3c(-c4ccccc4)nc4cc(C)ccc43)c2c1 in this assay?
OUTPUT: active

---

// growth lookup, one value per entry
# Test system: SK-MEL-5 melanoma
# Assay summary: NCI-60 one-dose screen, 48 h (100 = growth as untreated, 0 = no growth, -100 = all killed)
# Measurement setup: 10 µM unless noted
About 83,000 compounds went through this panel and 20% of them were active in at least one assay; those are over-represented in the sample as a whole.
// note: answer is a bare numeric in %

Sample records with growth:
COc1ccc(NC(=O)Nc2ccc(OCc3ccc(F)cc3)cc2)cc1 = 76.6
CN1CCN(/C(=N\c2sc(-c3ccccc3)nc2-c2ccccc2)c2ccccc2)CC1 = 75

INPUT: Requested read-out growth, target or system SK-MEL-5 melanoma, entry CCOC(=O)COc1c(OC)c(OC)cc2oc(-c3cccc(C(=O)Nc4ccc(Cl)cc4)c3)cc(=O)c12
OUTPUT: 22.3

INPUT: Checklist item: growth tested on SK-MEL-5 melanoma, entry N/C(=N\c1nc2ccccc2s1)NC(=O)NCCCCCCO , value?
OUTPUT: -3.23

INPUT: Form entry - test system: SK-MEL-5 melanoma; read-out: growth; molecule: CCCCNC(=S)Nc1ccc(OCc2nc3ccccc3[nH]2)cc1
OUTPUT: 78

INPUT: Find growth (SK-MEL-5 melanoma) for the entry CCCSc1nc(NCCc2c[nH]c3ccccc23)c(C#N)c(-c2ccc(F)cc2)n1
OUTPUT: 13.1

INPUT: So what growth did COc1cccc(/C=C/c2nc3ccccc3c(=O)n2CC(=O)Nc2ccc(Cl)cc2)c1 get with SK-MEL-5 melanoma?
OUTPUT: 101

INPUT: Enter reported growth observed with SK-MEL-5 melanoma for COc1c(F)ccc(C(=O)Nc2ccc3nc(NC(=O)C4CCCN(S(=O)(=O)c5cccc(C(F)(F)F)c5)C4)sc3c2)c1F (stereo not drawn)
OUTPUT: 89.3

INPUT: Form entry - test system: SK-MEL-5 melanoma; read-out: growth; molecule: COc1cc(-c2nc3cc(Cl)c(Cl)cc3[nH]2)ccc1OCc1nnc(-c2cccs2)o1
OUTPUT: 44.6

INPUT: Reported growth for SK-MEL-5 melanoma, given C#C[C@]1(O)CC[C@H]2[C@@H]3CC=C4c5sc(-c6ccc([N+](=O)[O-])cc6)nc5CC[C@]4(C)[C@H]3CC[C@@]21C ?
OUTPUT: 23

INPUT: Query the reported growth for SK-MEL-5 melanoma; item: CN(C)c1nc(NCCNS(=O)(=O)c2ccc(C3=Nc4c(N)nc(N)nc4NC(c4ccc(Cl)cc4)C3)cc2)nc(Nc2ccc(F)cc2)n1 (stereo not drawn)
OUTPUT: -48.7
